The values you see were collected from paper doi:10.1101/2025.06.05.658000.

- target-or-test-system: HLA-DR (DRA1*01:01 / DRB1*15:01), soluble knob-into-hole Fc heterodimer (human)
- experimental-protocol: ELISA
pKi: −log10 of the molar value.
measurement-kind: pKi

> print(dat)
                                     binder  measurement.kind  observed
1  KPVSKMRMATPLLMQALPM [human CLIP peptide, unlabelled competitor]               pKi      8.20
